B1: library; a variant is named by its letters at N, in order (parent)
chain: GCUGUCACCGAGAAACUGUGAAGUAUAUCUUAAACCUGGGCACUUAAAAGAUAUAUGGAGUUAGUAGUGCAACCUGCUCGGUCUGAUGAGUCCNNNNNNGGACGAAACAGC

Variants of: B1
Test: normalized RNA/DNA level with ligand (relative to sTRSVctl = 100) (log10 (% of sTRSVctl)); HEK293T; ligand: cyclic di-GMP (c-di-GMP-II aptamer); ligand concentration (+) RNA-Seq: 1 mM; higher = less ribozyme self-cleavage, higher mRNA level
Settings: reporter: mCherry (pCS4076), ligand present: yes
QUANTITY KIND: normalized RNA/DNA level with ligand (log10)

- GCUGUCACCGAGAAACUGUGAAGUAUAUCUUAAACCUGGGCACUUAAAAGAUAUAUGGAGUUAGUAGUGCAACCUGCUCGGUCUGAUGAGUCCCUCUUUGGACGAAACAGC [CUCUUU]: 1.76
- GCUGUCACCGAGAAACUGUGAAGUAUAUCUUAAACCUGGGCACUUAAAAGAUAUAUGGAGUUAGUAGUGCAACCUGCUCGGUCUGAUGAGUCCCUGAAAGGACGAAACAGC [CUGAAA]: 1.43
- GCUGUCACCGAGAAACUGUGAAGUAUAUCUUAAACCUGGGCACUUAAAAGAUAUAUGGAGUUAGUAGUGCAACCUGCUCGGUCUGAUGAGUCCUAGAGCGGACGAAACAGC [UAGAGC]: 1.85
- GCUGUCACCGAGAAACUGUGAAGUAUAUCUUAAACCUGGGCACUUAAAAGAUAUAUGGAGUUAGUAGUGCAACCUGCUCGGUCUGAUGAGUCCCAGCUAGGACGAAACAGC [CAGCUA]: 1.56
- GCUGUCACCGAGAAACUGUGAAGUAUAUCUUAAACCUGGGCACUUAAAAGAUAUAUGGAGUUAGUAGUGCAACCUGCUCGGUCUGAUGAGUCCUCACAUGGACGAAACAGC [UCACAU]: 1.78
